- TARGET_SYSTEM: T1, human LRIG1 extracellular domain fused to a linker-spaced 6-histidine tag, LRIG1-ECD-His (R&D systems, … (human, UniProt Q96JA1 35-794))
- T1 construct: Bought protein; also called human LRIG1-His; hLRIG1-His; not shown: linker-spaced 6-histidine tag
- T1 sequence: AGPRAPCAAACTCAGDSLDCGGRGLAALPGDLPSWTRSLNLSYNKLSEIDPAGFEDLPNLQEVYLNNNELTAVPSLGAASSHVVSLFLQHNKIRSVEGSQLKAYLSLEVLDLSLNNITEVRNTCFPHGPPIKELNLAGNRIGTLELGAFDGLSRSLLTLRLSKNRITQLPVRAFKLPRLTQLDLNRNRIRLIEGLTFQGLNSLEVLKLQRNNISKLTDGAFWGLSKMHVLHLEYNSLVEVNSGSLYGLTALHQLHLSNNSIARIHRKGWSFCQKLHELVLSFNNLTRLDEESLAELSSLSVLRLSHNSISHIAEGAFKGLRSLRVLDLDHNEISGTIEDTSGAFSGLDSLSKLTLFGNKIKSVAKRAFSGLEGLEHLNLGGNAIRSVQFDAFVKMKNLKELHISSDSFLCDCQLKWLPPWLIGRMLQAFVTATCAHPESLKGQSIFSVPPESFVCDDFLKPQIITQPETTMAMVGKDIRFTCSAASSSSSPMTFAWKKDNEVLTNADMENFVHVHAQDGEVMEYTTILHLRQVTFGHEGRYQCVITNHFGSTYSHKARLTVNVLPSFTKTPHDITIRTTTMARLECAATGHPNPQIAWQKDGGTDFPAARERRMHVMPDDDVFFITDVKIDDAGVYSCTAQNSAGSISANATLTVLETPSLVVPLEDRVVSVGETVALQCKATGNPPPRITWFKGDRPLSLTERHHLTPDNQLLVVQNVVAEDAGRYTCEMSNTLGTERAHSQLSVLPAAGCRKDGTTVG
- ASSAY_METHOD_TEXT: LRIG1 ECD ELISA-positive hybridoma antibodies tested in blocking ELISA on plate-bound LRIG1-ECD-His
OUTCOME_MEASURE: binding result

BINDER	OBSERVED_MEASUREMENT
802.2B7.2F9 (antibody, V domains shown, Mouse hybridoma monoclonal) VH: EVQLVESGGGLAKPGGSLKLSCAASGFTFSASAMSWVRQTPEKRLEWVATISDGGSYTYYPDNVKGRFTISRDNAKSNLYLQMSHLKSEDTAMYYCAGGVSTVINFDYWGQGTTLTVSS VL: DVVMTQTPLSLPVSLGDQVSISCRSSQSIVHSNGNTYLEWYLQKPGQSPKLLIYKVSNRFSGVPDRFSGSGSGTDFTLKISRVEAEDLGVYYCFQGSHVPLTFGGGTKLELK	binds

Values from patent US20220281973A1
